# assaySummary: Luminescence activity of ZZ-fused KAZ mutants in crude enzyme solutions
# Format: biochemical
# statedConditions: ZZ-fused, crude enzyme solution; coelenterazine (Table 9)
experimentalReadout: Luminescence activity, fold higher than dnKAZ (fold)
Supply the numeric figure in fold, leaving out any unit text.

Quick one: Luminescence activity, fold higher than dnKAZ of KAZ-V44I-A54I: KAZ mutant with two amino acid substitutions V44I and A54I, SEQ ID NO: 10 (protein) FTLADFVGDWQQTAGYNQDQVLEQGGLSSLFQALGVSVTPIQKIVLSGENGLKIDIHVIIPYEGLSGFQMGLIEMIFKVVYPVDDHHFKIILHYGTLVIDGVTPNMIDYFGRPYPGIAVFDGKQITVTGTLWNGNKIYDERLINPDGSLLFRVTINGVTGWRLCENILA ?
1.6

Query: Luminescence activity, fold higher than dnKAZ; subject: KAZ-V44I-A54I-Y138I: KAZ mutant with three amino acid substitutions V44I, A54I and Y138I, SEQ ID NO: 16 (protein) FTLADFVGDWQQTAGYNQDQVLEQGGLSSLFQALGVSVTPIQKIVLSGENGLKIDIHVIIPYEGLSGFQMGLIEMIFKVVYPVDDHHFKIILHYGTLVIDGVTPNMIDYFGRPYPGIAVFDGKQITVTGTLWNGNKIIDERLINPDGSLLFRVTINGVTGWRLCENILA
7.1

Form field: reported Luminescence activity, fold higher than dnKAZ of KAZ-A54I-Y138I: KAZ mutant with two amino acid substitutions A54I and Y138I, SEQ ID NO: 14 (protein) FTLADFVGDWQQTAGYNQDQVLEQGGLSSLFQALGVSVTPIQKVVLSGENGLKIDIHVIIPYEGLSGFQMGLIEMIFKVVYPVDDHHFKIILHYGTLVIDGVTPNMIDYFGRPYPGIAVFDGKQITVTGTLWNGNKIIDERLINPDGSLLFRVTINGVTGWRLCENILA
2.5

Recorded Luminescence activity, fold higher than dnKAZ of KAZ-V44I-Y138I: KAZ mutant with two amino acid substitutions V44I and Y138I, SEQ ID NO: 12 (protein) FTLADFVGDWQQTAGYNQDQVLEQGGLSSLFQALGVSVTPIQKIVLSGENGLKADIHVIIPYEGLSGFQMGLIEMIFKVVYPVDDHHFKIILHYGTLVIDGVTPNMIDYFGRPYPGIAVFDGKQITVTGTLWNGNKIIDERLINPDGSLLFRVTINGVTGWRLCENILA , please.
1.8
